// cross-source set; read-out = IC50; system = PIK3CA (human)

Some entries whose results are on file:
{"columns": ["molecule", "reportedResult"],
 "data": [
  ["Cn1cc(/C=C2\\Oc3cc(O)cc(O)c3C2=O)c2c(N3CCCC3)ccnc21", "59 nM"],
  ["CNc1ncccc1CNc1cccc(Oc2cc(=O)[nH]c3ccccc23)c1", "> 10000 nM"],
  ["Cc1cccc2cc(Cn3nc(-c4cc(O)cc(F)c4)c4c(N)ncnc43)n(-c3ccccc3Cl)c(=O)c12", "< 10000 nM"],
  ["C[C@H](Nc1ncnc2scnc12)c1cc2cccc(Cl)c2c(C(=O)N2CCNC(=O)C2)n1", "> 10000 nM"],
  ["Nc1ncc(-c2cc(N3CCOCC3)cc(S(=O)(=O)[C@@H]3CCOC3)c2)s1", "750 nM"]
]}

What value of IC50 has been reported for the following molecule? Cc1cc(-c2ccc3ncc4nnc(-c5ccc(C(C)(C)C#N)nc5)n4c3c2)cnc1N
< 100 nM

What value of IC50 has been reported for the following molecule? CN(C)C(=O)CN1CCC(n2cnc3cnc4ccc(-c5cnc(N)c(C(F)(F)F)c5)nc4c32)CC1
< 100 nM

What value of IC50 has been reported for the following molecule? CNC(=O)C(C)Cn1cnc2ccc(-c3cnc(OC)c(NS(=O)(=O)c4sccc4C)c3)cc2c1=O (single isomer, unassigned)
4.08 nM

* * *

pIC50: −log10 of the molar value.
// cross-source set; read-out = pIC50; system = PIK3CA (human)

Item Nc1nc2cc(-c3ccc4ncnc(NC5CCOCC5)c4c3)ccc2o1 with PIK3CA (human) - pIC50?
> 7.00

Item C[C@H]1COCCN1c1cc(-n2c(C(F)F)nc3ccccc32)nc(NC[C@H]2CC[C@H](N(C)CC(C)(C)O)CC2)n1 with PIK3CA (human) - pIC50?
6.11

Item C=Cc1cnc(N)nc1N1CCOc2c(C)cc(-c3cnc4sc(N)nc4c3)cc2C1 with PIK3CA (human) - pIC50?
≥ 7.00

Item C[C@H](Nc1ncnc2[nH]cnc12)c1cc2cccc(Cl)c2c([S+]([O-])CCN2CCCC2)n1 (some centres unmarked) with PIK3CA (human) - pIC50?
> 5.00

Item Cc1nc2ncc(-c3ccc4c(c3)CN(c3ncnc5c3ccn5C)CCO4)cc2[nH]1 with PIK3CA (human) - pIC50?
≤ 5.70

Item COc1ncc(-c2cnc3[nH]cc(C(=O)c4c(F)ccc(NS(=O)(=O)C5CCCC5)c4F)c3c2)cn1 with PIK3CA (human) - pIC50?
≥ 5.00

Item O=c1cc(Oc2cccc(NCc3cccnc3)c2)c2ccccc2[nH]1 with PIK3CA (human) - pIC50?
< 5.00

Item COC[C@H](Nc1ccc2c(c1)OCCn1cc(N3C(=O)OC[C@H]3CC#N)nc1-2)C(N)=O with PIK3CA (human) - pIC50?
8.33

* * *

// cross-source set; read-out = pIC50; system = PIK3CA (human)
pIC50: −log10 of the molar value.

{"columns": ["compoundSmiles", "reportedResult"],
 "data": [
  ["CC(C)(C#N)c1ccc(-n2nnc3cnc4ccc(-c5cnc(N)nc5)nc4c32)cc1", "> 7.00"],
  ["O=C(c1cnc2ccc(-c3cccc(NS(=O)(=O)c4ccc(F)cc4F)c3)cn12)N1CCOCC1", "> 5.00"],
  ["CC(C)Cn1c(N2CCN(C(=O)C[C@@H](C)O)[C@H](C)C2)nc2c(N3CCOCC3)nc(-c3cnc(N)nc3)nc21", "> 8.00"],
  ["COCCn1cnc2ccc(-c3ccc4oc(N)nc4c3)cc2c1=O", "> 6.00"],
  ["O=c1cc(Oc2cccc(-c3ccccc3)c2)c2ccccc2[nH]1", "< 5.00"]
]}

Item CNC(=O)Nc1ccc2c(c1)C(=O)/C(=C/c1cn(C)c3nccc(-c4ccc(C(=O)N5CCN(CCO)CC5)cc4)c13)O2 with PIK3CA (human) - pIC50?
6.60

Item CCN(CC(C)(C)O)[C@H]1CC[C@H](CNc2nc(N3CCOC[C@@H]3C)cc(-n3c(C(F)F)nc4ccccc43)n2)CC1 with PIK3CA (human) - pIC50?
6.15

Item CNC(=O)CCCn1cnc2ccc(-c3cnc(OC)c(NS(=O)(=O)c4ccc(F)cc4Cl)c3)cc2c1=O with PIK3CA (human) - pIC50?
8.96

* * *

// cross-source set; read-out = pIC50; system = PIK3CA (human)
pIC50: −log10 of the molar value.
measuredEndpoint: pIC50

a: CNc1nc(C)c2cc(-c3cnc(OC)c(NS(=O)(=O)c4ccc(F)cc4Cl)c3)cc(O[C@@H]3CCOC3)c2n1
b: Oc1ccccc1CN[C@H]1CC[C@H](Nc2nc(N3CCOCC3)nc(-n3c(C(F)F)nc4ccccc43)n2)CC1
c: CC(=O)NC[C@@H]1CCN(C(=O)Nc2nc(C)c(-c3ccnc(C(C)(C)C(F)(F)F)c3)s2)[C@@H]1C(N)=O
Rank by pIC50 (largest to smallest). Field: ranking. Enter the labels in the order requested.
a, c, b

* * *

// cross-source set; read-out = IC50; system = PIK3CA (human)

Some entries whose results are on file:
{"columns": ["compoundSmiles", "targetOrTestSystem", "IC50"],
 "data": [
  ["C[C@H](NC(=O)c1nc(-c2cccc(S(=O)(=O)N3CCN(C)CC3)c2)cnc1N)c1cc2cccc(Cl)c2c(=O)n1-c1ccccc1", "PIK3CA (human)", "1000 to 10000 nM"],
  ["NC(=O)c1ccc(Oc2cc(=O)[nH]c3ccccc23)cc1", "PIK3CA (human)", "> 10000 nM"],
  ["CC(=O)Nc1nc2cc(-c3cc(F)c4oc(N)nc4c3)ccc2s1", "PIK3CA (human)", "< 10000 nM"],
  ["O=C1C(=Cc2cn(CCCN3CCOCC3)c3ncccc23)Oc2c1ccc(O)c2O", "PIK3CA (human)", "135 nM"]
]}

Note: attention shifts to another entry.
Item Nc1nc2cc(-c3ccc4ncn(CCN5CCOCC5)c(=O)c4c3)ccc2o1 with PIK3CA (human) - IC50?
< 1000 nM

* * *

// cross-source set; read-out = IC50; system = PIK3CA (human) (UniProt P42336)

Some entries whose results are on file:
{"columns": ["compound", "IC50"],
 "data": [
  ["Nc1ncc(-c2nc(N3CCOCC3)c3ncc(-c4cccc(NC(=O)CN5CCC(O)CC5)c4)cc3n2)cn1", "< 50 nM"],
  ["CCC1CCC(C)N(C(=O)N2CCOc3ccc(-c4ccc5nc(C)[nH]c5c4)cc3C2)C1 (stereo not shown)", "200 to 500 nM"],
  ["Cc1cccc2cc(Cn3nc(-c4ccc(O)cc4)c4c(N)ncnc43)n(-c3ccccc3F)c(=O)c12", "> 10000 nM"]
]}

Note: attention shifts to another entry.
Item Cn1cc(/C=C2\Oc3cccc(O)c3C2=O)c2c(N3CC4CC3CO4)ccnc21 (stereo not shown) with PIK3CA (human) (UniProt P42336) - IC50?
30 nM

* * *

// cross-source set; read-out = IC50; system = UniProt:P42336

Some entries whose results are on file:
{"columns": ["compound", "IC50"],
 "data": [
  ["CS(=O)(=O)N1CCN(c2nc3c(N4CCOCC4)nc(-c4cnc(N)nc4)nc3n2CC(F)(F)F)CC1", "< 10 nM"],
  ["Nc1nc(C(F)(F)F)c(-c2cc(S(=O)(=O)c3ccccc3)cc(N3CCOCC3)n2)s1", "5240 nM"],
  ["Nc1nc2cc(-c3ccn4ncc(C(=O)N5CCCC5)c4c3)ccc2o1", "< 100 nM"],
  ["C[C@@H]1CN(c2nc(N3CCOCC3)c3nc(-c4cccc(O)c4)[nH]c3n2)C[C@H](C)O1", "20 nM"],
  ["Cc1ccc2nc(C(F)F)n(-c3cc(N4CCOCC4)nc(NC[C@H]4CC[C@H](N5CCOCC5)CC4)n3)c2c1", "> 10000 nM"],
  ["CC(Nc1ncnc2[nH]cnc12)c1cc2ccccc2c(=O)n1-c1ccccc1 (centres unmarked)", "> 10000 nM"]
]}

Item Cn1cc(/C=C2\Oc3cc(O)cc(O)c3C2=O)c2c(C#Cc3ccccc3)ccnc21 with UniProt:P42336 - IC50?
106 nM

Item CC(=O)Nc1cccc(-c2cnc3c(N4CCOCC4)nc(-c4cnc(N)nc4)nc3c2)c1 with UniProt:P42336 - IC50?
< 50 nM

* * *

// cross-source set; read-out = IC50; system = PIK3CA (human) (UniProt P42336)

Some entries whose results are on file:
{"columns": ["compoundSmiles", "reportedResult"],
 "data": [
  ["CC(C)(O)C(=O)N1CCN(Cc2ccc3c(N4CCOCC4)nc(-c4cnc(N)nc4)nc3c2)CC1", "201 to 10000 nM"],
  ["Cc1ccccc1-n1c(Cn2nc(-c3ccc(O)c(F)c3)c3c(N)ncnc32)cc2nccc(C)c2c1=O", "> 10000 nM"],
  ["C[C@H]1COCCN1c1ccnc2c1c(/C=C1\\Oc3ccc(NC(=O)Nc4cccnc4)cc3C1=O)cn2C", "649 nM"],
  ["Cc1cn(C2CN(c3cnc4ccc(-c5ccc6oc(N)nc6c5)cc4n3)C2)cn1", "< 100 nM"],
  ["CC(=O)N1CCN(C(=O)c2cnc3ccc(-c4ccc5oc(N)nc5c4)cn23)CC1", "< 100 nM"]
]}

Item O=S(=O)(Nc1cc(-c2ccc3nccc(-c4ccncc4)c3c2)c[n+]([O-])c1Cl)c1ccccc1 with PIK3CA (human) (UniProt P42336) - IC50?
1.6 nM

Item Cc1cc(-c2ccc3nc(N)oc3c2)cn2c(-c3ccncc3)nnc12 with PIK3CA (human) (UniProt P42336) - IC50?
> 10000 nM

Item O=c1cc(Oc2ccc(Cl)cc2)c2ccccc2[nH]1 with PIK3CA (human) (UniProt P42336) - IC50?
2480 nM
